So I've got a bunch of compounds here, and I need their inhibition at 1 µM values.
Test system: PC-3
Test: SRB assay, % inhibition of tumor cell growth (Example 61)
Assay type: cell-based
Settings: Homo sapiens, 48 hours, vs DMSO-treated cells

# COMPOUND, MEAS VALUE
measured = [
    ("O=c1c(NCCCCCCOc2ccc(Cl)c(Cl)c2)c(Nc2ccncc2)c1=O [SQ-15]", "> 50%"),
]

Quick one: give me inhibition at 1 µM for each item below, same order please.
1. O=c1c(NCCCCCCOc2ccc(Cl)cc2)c(Nc2ccncc2)c1=O [SQ-7B]
2. O=c1c(NCCc2ccc(Oc3ccccc3)cc2)c(Nc2cccnc2)c1=O [SQ-5]
3. O=c1c(NCc2ccc(Oc3ccccc3)cc2)c(Nc2cccnc2)c1=O [SQ-34]

["> 50%", "> 50%", "> 0%"]

* * *

So I've got a bunch of molecules here, and I need their inhibition at 1 µM values.
Test system: HCT-116
Test: SRB assay, % inhibition of tumor cell growth (Example 61)
Assay type: cell-based
Conditions: Homo sapiens, 48 hours, vs DMSO-treated cells

# SUBSTANCE SMILES, VALUE TYPE, MEAS VALUE
rows = [
    ("O=c1c(NCc2ccc(Oc3ccccc3)cc2)c(Nc2cccnc2)c1=O", "inhibition at 1 µM", "> 20%"),
    ("O=c1c(NCCCCCCOc2ccc(Cl)cc2)c(Nc2ccncc2)c1=O", "inhibition at 1 µM", "> 80%"),
    ("O=c1c(NCCc2ccc(Oc3ccccc3)cc2)c(Nc2cccnc2)c1=O", "inhibition at 1 µM", "> 80%"),
]

So what does the record say about inhibition at 1 µM for O=c1c(NCCCCCCOc2ccc(Cl)c(Cl)c2)c(Nc2ccncc2)c1=O ?
> 80%
